Catalogue of IC50 readings, one per entry.
biological target: HDAC2 (Homo sapiens, UniProt Q92769); construct: purchased Reaction Biology Corporation (assay run by the CRO); assay: HDAC2 inhibition, full IC50 measurement (Reaction Biology; fluorogenic p53 peptide RHKK(Ac)AMC); type: biochemical; settings: figure legends, Supp. Table 1; read-out: HDAC2 IC50
Sequence (Q92769 whole entry): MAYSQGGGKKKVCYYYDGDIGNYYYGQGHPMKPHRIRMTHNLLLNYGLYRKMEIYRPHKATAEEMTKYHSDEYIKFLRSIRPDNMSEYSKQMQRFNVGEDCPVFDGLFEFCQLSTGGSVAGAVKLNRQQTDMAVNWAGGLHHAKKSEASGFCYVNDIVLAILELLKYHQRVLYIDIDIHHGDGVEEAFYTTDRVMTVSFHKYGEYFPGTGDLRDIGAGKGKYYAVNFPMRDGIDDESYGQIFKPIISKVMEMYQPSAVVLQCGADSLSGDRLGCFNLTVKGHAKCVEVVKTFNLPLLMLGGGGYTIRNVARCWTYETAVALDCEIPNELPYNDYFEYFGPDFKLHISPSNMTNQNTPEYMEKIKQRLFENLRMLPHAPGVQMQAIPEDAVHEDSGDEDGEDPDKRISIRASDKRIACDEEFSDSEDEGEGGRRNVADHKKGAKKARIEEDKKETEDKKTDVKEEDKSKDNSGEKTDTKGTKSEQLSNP
Peptide text beside a SMILES is read from it.
quantity.name: IC50 (nM)

molecule | quantity.name | meas.value
CSCC[C@H]1NC(=O)[C@@H](CO)NC(=O)[C@H](CC(N)=O)NC(=O)[C@H](CC(=O)O)NC(=O)[C@@H]([C@H](C)O)NC(=O)[C@H](Cc2c[nH]c3ccccc23)NC(=O)[C@H](CCCCCS)NC(=O)[C@H](CCCCN)NC(=O)[C@@H](CC(=O)O)NC1=O [des2.1.1, SHA-Trp-dThr-Asp-Asn-dSer-dMet-dAsp-Lys] (HELM PEPTIDE1{D.N.[dS].[dM].[dD].K.[O=C([C@H](CCCCCS)N[*:1])[*:2]].W.[dT]}$PEPTIDE1,PEPTIDE1,1:R1-9:R2$$$V2.0) | IC50 | 16.3
CC(C)[C@@H]1NC(=O)[C@H](CCCNC(=N)N)NC(=O)[C@@H](CC(=O)O)NC(=O)[C@H](CO)NC(=O)[C@@H](CO)NC(=O)[C@@H](CCC(=O)O)NC(=O)[C@H](Cc2ccc(O)cc2)NC(=O)[C@H](CCCCCS)NC1=O [des4.2.0, SHA-Tyr-dGlu-dSer-Ser-dAsp-Arg-Val] (HELM PEPTIDE1{R.V.[O=C([C@H](CCCCCS)N[*:1])[*:2]].Y.[dE].[dS].S.[dD]}$PEPTIDE1,PEPTIDE1,1:R1-8:R2$$$V2.0) | IC50 | 214

Reference source for all entries: paper PMC8185074
